Each entry below lists one item and its recorded protein stability index value.
B1: ANKRD17 (parent)
chain: EMVRFLLEAGADQEHKTDEMHTAL

Variants of: B1
assay explanation: protein stability index of a GFP-peptide fusion (GPS, HEK-293T) (PSI 1-6); higher = more stable;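 also: lentivirally expressed fusions sorted by FACS into six bins by GFP to DsRed ratio, PSI derived from sequencing read proportions per bin multiplied by bin number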
measurement parameters: c terminus: a fixed tail appended
assay endpoint: protein stability index

INSERT INTO assay_data (residue_change, assay_endpoint, readout_value) VALUES
  ('A11W', 'protein stability index', 2.22),
  ('L24I', 'protein stability index', 2.31),
  ('R4C', 'protein stability index', 3.14),
  ('T17H', 'protein stability index', 2.55),
  ('D18S', 'protein stability index', 2.73),
  ('K16W', 'protein stability index', 1.88),
  ('T17W', 'protein stability index', 2.19),
  ('L6Q', 'protein stability index', 4.75),
  ('F5N', 'protein stability index', 4.29),
  ('M20A', 'protein stability index', 3.04),
  ('L24R', 'protein stability index', 2.72),
  ('E1G', 'protein stability index', 3.41),
  ('L6I', 'protein stability index', 2.63),
  ('H15I', 'protein stability index', 2.56),
  ('M2F', 'protein stability index', 1.97),
  ('E19I', 'protein stability index', 1.63),
  ('E14M', 'protein stability index', 2.72),
  ('A9L', 'protein stability index', 2.59),
  ('T17A', 'protein stability index', 2.45),
  ('T22M', 'protein stability index', 2.15),
  ('L24Y', 'protein stability index', 2.95),
  ('V3W', 'protein stability index', 2.65),
  ('D18T', 'protein stability index', 2.42),
  ('H15G', 'protein stability index', 2.73),
  ('F5W', 'protein stability index', 2.26),
  ('D18C', 'protein stability index', 2.01),
  ('D12S', 'protein stability index', 2.29),
  ('G10V', 'protein stability index', 2.07),
  ('E8N', 'protein stability index', 2.48),
  ('E8A', 'protein stability index', 2.15),
  ('L7I', 'protein stability index', 3.31),
  ('T22Y', 'protein stability index', 1.93),
  ('K16G', 'protein stability index', 2.56),
  ('K16F', 'protein stability index', 3),
  ('M2D', 'protein stability index', 5.29),
  ('T17P', 'protein stability index', 3.17),
  ('H15K', 'protein stability index', 2.92),
  ('D18I', 'protein stability index', 2.64),
  ('T22L', 'protein stability index', 3.45),
  ('D12G', 'protein stability index', 1.96),
  ('L7T', 'protein stability index', 3.99),
  ('D12N', 'protein stability index', 2.17),
  ('L24K', 'protein stability index', 3.3),
  ('D12Y', 'protein stability index', 1.89),
  ('F5A', 'protein stability index', 3.9),
  ('M20V', 'protein stability index', 2.84);

The reported measurements were obtained from the supplement of paper PMC10567573.
